Quick list: protein stability index per entry.
B1: GMCL1 (parent)
chain: FCYCAGSHKRKRSSGSFCYCHPDS

- Variants of: B1
- protocol.summary: protein stability index of a GFP-peptide fusion (GPS, HEK-293T) (PSI 1-6); higher = more stable;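 also: lentivirally expressed fusions sorted by FACS into six bins by GFP to DsRed ratio, PSI derived from sequencing read proportions per bin multiplied by bin number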
- run.conditions: c terminus: a fixed tail appended
// no unit, no text: just the number

# variant.notation, protein stability index
measured = [
    ("F1P", 4.21),
    ("C2K", 2.06),
    ("S14R", 2.02),
    ("S13R", 1.85),
]

For the next question, use this variant.
Exercise: Return reported protein stability index; argument: K9S
Key: 2.76
